Assay: NFAT Signaling Pathway (AID 444);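 further: carbachol stimulus at about its EC50 of 1 µM final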
Settings: Jurkat NFAT-bla M1, carbachol, beta-lactamase ratio, 5 h; at 7.69 µM (top of the series) unless noted
Protocol: NCGC Assay Overview: The nuclear factor of activated T cells (NFAT) family of transcription factors has been found primarily in most immune system cells and some other non-immune cells. NFAT plays the immunomodulatory role, primarily in T-cell activation and differentiation. […] NCGC Assay Protocol Summary: The cells were prepared in RPMI 1640 medium containing 0.1% dialyzed FBS and 25 mM HEPES at 1.6 x 10^6cell/ml. […] The %Activity was determined from the ratio of 460nm/530nm. […]
Results filed as inconclusive are left out. Active and inactive are the calls of the source. The call rests on the fitted dose curve; in most records, active means well fitted curve in either direction with a large enough effect (not every such curve was filed as active); inconclusive means small, poorly fitted or top-dose-only effect, or another doubt; inactive means flat fitted curve, though single readings scatter.
Outcome codes: y for active, n for inactive

compound	group-label
Cc1c(O)c(Br)c(C)c(O)c1Br (tested in a mixture with another compound)	y
Oc1ccc(Cl)cc1C=Nc1cnc2ccccc2c1	n
Nc1ncnc2nc[nH]c12.Nc1ncnc2nc[nH]c12.[Cl][Pt]([Cl])([Cl])[Cl]	n
Cc1ccc(S(=O)(=O)N=Nc2c(O)[nH]c3cc(O)c(C(=O)O)cc23)cc1	n
Nc1nccc(Nc2ccc(S(N)(=O)=O)cc2)n1	n
CN(C)Cc1cc(C(C)(C)C)ccc1-c1ccc(C(C)(C)C)cc1CN(C)C	n
O=S(=O)(O)c1ccc(N=Nc2ccc3c(S(=O)(=O)O)cccc3c2O)c2ccccc12	n
O=C(NCCO)c1ccc(Cl)cc1	n
CC(=NCC(=O)O)c1ccccc1	n
NS(=O)(=O)c1cc(C(=O)O)c(Cl)c([N+](=O)[O-])c1Cl	n
N=C(N)c1ccc(-c2ccc(-c3ccc(C(=N)N)cc3)o2)cc1	n
CN(Cc1ccccc1)Cn1ccnc1	n
O=C(O)[C@@H]1[C@@H](C(=O)Nc2ccccc2)[C@@H]2C=C[C@@H]1O2	n
C[C@@]1(C(=O)O)CCC[C@@H]1C(=O)O	n
O=c1c(-c2ccc(F)cc2)nc2cnc(Oc3ccccc3)nc2n1C[C@H]1CCCO1	n
CN(CC(=O)O)Cc1oc(CO)cc(=O)c1O	n
O=C(O)c1ccccc1/C=N\N=C1c2ccccc2-c2ccccc21	n
O=S(O)O.O=S(O)O.[Co].[NH2-].[NH2-].[NH2-].[NH2-]	n
N[C@@H]1[C@@H]2[C@@H]3C[C@H]4N(CC[C@@]14C(=O)C(=O)O)CC3=CCO[C@@H]2CC(=O)O	n
Nc1ccc(S(=O)(=O)c2ccc(NC(=O)c3cccnc3)cc2)cc1	n
COc1ccc(-c2cc([C@H](O)[C@@H]3CCCCN3)c3ccccc3n2)cc1	n
COc1ccc(C[N+](C)(C)N)cc1OC	n
CN(C)C[C@@H](O)c1ccc(Cl)c2ccccc12	n
C/C(=N\O)c1cccc[n+]1Cc1ccccc1	n
Nc1nc(-c2ccc3ccccc3c2)cc(-c2cc(-c3ccc4ccccc4c3)nc(N)n2)n1	n
CNC(=O)[C@@H]1O[C@@H](n2cnc3c(NCc4ccc(N)cc4)ncnc32)[C@@H](O)[C@H]1O	n
CN(C)Cc1cc(C(=O)O)cc(CN(C)C)c1O	n
O=C(O)[C@H](Cc1ccc(O)c([N+](=O)[O-])c1)N1C(=O)c2ccccc2C1=O	n
[N-]=[N+]=CC(=O)COC(=O)c1ccccc1	n
O=C(O)/C=C\c1cnc[nH]1	n
C[C@H](C(=O)c1ccccc1)[C@@H](c1ccccc1)N1CCOCC1	n
CC(C)(C)c1ccc(O)c(CN(Cc2c(O)ccc3ccccc23)C2CCCCC2)c1	n
COc1ccc(Oc2ncc3nc(-c4ccccc4)c(=O)n(CCC#N)c3n2)cc1	n
CC(C)(C)CC(C)(C)c1ccc(O)c(C[N+](C)(C)[O-])c1	n
CC(C)CNC(=O)O	n
Cn1ccnc1C[C@@](C)(O)c1ccccc1	n
COc1ccc(/C=N\NC(=O)O)cc1	n
NNC(=O)CS(=O)(=O)Nc1ncccn1	n
COc1ccc2cc(C(=O)CCC(=O)O)ccc2c1	n
O=C(O)c1ccccc1C1c2ccccc2Oc2ccccc21	n
Nc1ncnc2c1ncn2[C@H]1O[C@@H](C(=O)OCCO)[C@@H](O)[C@H]1O	n
CC(=O)CC(=O)Nc1ccc2ccccc2c1	n
O=C(O)c1ccc(NS(=O)(=O)Cc2ccccc2)cc1	n
c1ccc(CN2CCC3(CC2)SSC2(CCN(Cc4ccccc4)CC2)SS3)cc1	n
O=C(O)c1ccccc1NCn1c(=S)sc2ccccc21	n
CN1[C@@H]2CC[C@H]1CC(OC(=O)[C@@H](CO)c1ccccc1)C2 (stereo partly specified)	y

---

biological target: Cytochrome P450 2C19 (Homo sapiens); test: qHTS Assay for Inhibitors and Substrates of Cytochrome P450 2C19 (AID 899); settings: recombinant CYP2C19, luciferin-H EGE luminescence; series mostly up to 11.4 µM; further: nearly all actives have a fitted effect of over 60% in size
Inconclusive results are not listed. Active and inactive are the calls of the source. Calls follow the shape of the dose curve; as a rule, active = well fitted inhibition curve with a large enough effect; inconclusive = small, poorly fitted or top-dose-only effect; inactive = no such curve, though single readings can be large or run the other way.
Outcome codes: active, inactive

structure-smiles-string	group-label
CN(Cc1ccccc1)Cn1ccnc1	active
O=[N+]([O-])c1cc(Cc2cc([N+](=O)[O-])c3cccnc3c2O)c(O)c2ncccc12	active
CC(=O)OC(C)(C)N=Nc1ccc(Br)cc1	active
N[C@@H](C(=O)O)[C@@H]1C[C@H]1C(=O)O	inactive
CC(CC(=O)O)(CC(=O)O)c1ccccc1	inactive
NNC(=O)CCSc1ccccc1	active
O=C(CC1(O)CCCCC1)OC1CCCC1	active
CCCCSCc1nc2nc(Cl)c(Cl)nc2[nH]1	active
CC(=O)[C@H](C(=N)C#N)C(=O)Nc1ccccc1	inactive
CC(C)(C)c1c2c(c(C(C)(C)C)c3c1OCN(Cc1ccccc1)C3)OCN(Cc1ccccc1)C2	inactive
Cc1cc(C)cc(C(=N)c2ccccc2Cc2cccc3ccccc23)c1	active
N=c1ccn2c(n1)O[C@H]1[C@@H](OP(=O)(O)O)[C@H](CO)O[C@H]12	inactive

---

Reported Potency values follow for various compounds
biological target: Glucocorticoid receptor (Homo sapiens) (UniProt P04150); assay: GR-EFC Redistribution (AID 451); settings: CHO-K1 GR-EFC translocation, beta-gal luminescence, 2 h; further: potency means the concentration at half of the fitted maximal effect
Sequence (P04150 whole entry, looked up): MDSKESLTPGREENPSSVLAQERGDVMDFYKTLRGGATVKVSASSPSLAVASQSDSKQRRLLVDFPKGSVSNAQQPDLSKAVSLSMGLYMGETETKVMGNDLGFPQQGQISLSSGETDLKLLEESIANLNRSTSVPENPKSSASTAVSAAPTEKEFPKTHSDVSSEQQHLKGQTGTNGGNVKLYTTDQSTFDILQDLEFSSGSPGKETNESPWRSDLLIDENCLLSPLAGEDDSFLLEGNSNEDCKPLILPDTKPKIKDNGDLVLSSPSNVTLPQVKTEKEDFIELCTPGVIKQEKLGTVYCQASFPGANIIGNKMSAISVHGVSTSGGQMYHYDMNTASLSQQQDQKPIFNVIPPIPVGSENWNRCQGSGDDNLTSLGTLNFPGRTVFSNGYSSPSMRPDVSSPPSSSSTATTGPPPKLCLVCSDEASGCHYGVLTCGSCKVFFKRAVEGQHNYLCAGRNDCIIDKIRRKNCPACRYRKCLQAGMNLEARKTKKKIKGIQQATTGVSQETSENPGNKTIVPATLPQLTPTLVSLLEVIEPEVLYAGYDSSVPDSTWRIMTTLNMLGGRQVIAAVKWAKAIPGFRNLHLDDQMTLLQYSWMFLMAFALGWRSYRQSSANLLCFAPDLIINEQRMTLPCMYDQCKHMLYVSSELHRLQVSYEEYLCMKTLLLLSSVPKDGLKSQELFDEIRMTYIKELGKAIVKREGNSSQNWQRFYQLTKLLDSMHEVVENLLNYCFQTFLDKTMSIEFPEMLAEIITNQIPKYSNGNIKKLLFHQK
The source made the active and inactive calls. Calls follow the shape of the full dose curve.

compound	Potency
CC1=C(CC[C@H](C)CO)O[C@@H]2C[C@@H]3[C@H]4CC[C@H]5C[C@@H](O)CC[C@]5(C)[C@@H]4CC(=O)[C@@]3(C)[C@@H]12	> 9.22 µM (inactive)
C[N+](C)(N)Cc1csc(-c2ccc(Cl)cc2)n1	> 9.22 µM (inactive)
CC(=O)O[C@]1(C)N=NC2(CCCCC2)O1	> 9.22 µM (inactive)
O=C(O)c1nnsc1COCc1ccccc1	> 9.22 µM (inactive)
NC(N)=NC(N)=Nc1c(F)c(F)c(F)c(F)c1F	> 9.22 µM (inactive)
CC(C)=CCNc1ncnc2c1c(C#N)cn2[C@H]1O[C@@H](CO)[C@@H](O)[C@@H]1O	> 9.22 µM (inactive)
O=C(O)C[C@H](Cc1ccccc1Cl)C(=O)O	> 9.22 µM (inactive)
CC(CC(=O)O)(CC(=O)O)C(=O)O	> 9.22 µM (inactive)
O=C1C2C3C=CC(C2C(=O)N1CN1CCOCC1)C1C2C(=O)N(CN4CCOCC4)C(=O)C2C31 (stereo not drawn)	> 9.22 µM (inactive)
CC1(C)S[C@@H]2[C@H](C(=O)O)N=C(Cc3ccccc3)N2[C@H]1C(=O)O	> 9.22 µM (inactive)
C[C@@H]1c2ccccc2Cn2cc3c(c21)C(=O)c1cccc(OP(=O)(O)OCc2ccccc2)c1C3=O	> 9.22 µM (inactive)
COc1ccc(-c2nc3cnc(Oc4ccccc4)nc3n(C3CC3)c2=O)cc1	> 46 µM (inactive)
O=S(=O)(c1ccc(Br)cc1)N1CCN(S(=O)(=O)c2ccc(Br)cc2)CC1	> 9.22 µM (inactive)

---

target: Cytochrome P450 2C9 (Homo sapiens) (UniProt P11712); experiment: qHTS Assay for Inhibitors and Substrates of Cytochrome P450 2C9 (AID 883); details: recombinant CYP2C9, luciferin-H luminescence, 60 min; series mostly up to 11.4 µM; further: nearly all actives have a fitted effect of over 60% in size
Sequence (P11712 whole entry, looked up): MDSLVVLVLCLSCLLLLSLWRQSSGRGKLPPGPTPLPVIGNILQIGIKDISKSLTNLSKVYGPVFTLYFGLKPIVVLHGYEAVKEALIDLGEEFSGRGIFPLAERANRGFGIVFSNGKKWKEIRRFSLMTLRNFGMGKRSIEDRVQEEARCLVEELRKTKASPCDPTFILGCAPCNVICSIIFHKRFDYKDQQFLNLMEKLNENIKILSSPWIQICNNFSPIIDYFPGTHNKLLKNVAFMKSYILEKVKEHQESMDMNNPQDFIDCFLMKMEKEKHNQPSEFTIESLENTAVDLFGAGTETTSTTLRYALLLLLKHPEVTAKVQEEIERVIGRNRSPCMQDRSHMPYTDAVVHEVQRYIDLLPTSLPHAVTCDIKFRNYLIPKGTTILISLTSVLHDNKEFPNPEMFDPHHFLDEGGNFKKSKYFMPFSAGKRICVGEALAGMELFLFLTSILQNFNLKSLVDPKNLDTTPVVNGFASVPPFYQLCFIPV
Results filed as inconclusive are left out. Calls of active or inactive are those of the source. Calls come from the whole dose curve; as a rule, active = well fitted inhibition curve with a large enough effect; inconclusive = small, poorly fitted or top-dose-only effect; inactive = no such curve, though single readings can be large or run the other way.
Outcome codes: T = active, F = inactive

structure-smiles-string	group-label
COc1ccccc1CCn1c(=O)c(-c2ccccc2)nc2cncnc21	T
BrC(c1cccc2ccccc12)c1cccc2ccccc12	T
CN(C)CCNCCN	F
C/C(C[n+]1ccccc1)=N\N=C(N)N	F
Oc1c(Br)cc(CN(Cc2cc(Br)c(O)c(Br)c2)C2CCCCC2)cc1Br	T
O=C(O)CCC/C=C\C[C@H]1[C@@H](/C=C\[C@@H](O)C2Cc3ccccc3C2)[C@H](F)C[C@H]1O	F
Cc1cc(O)c(C(C)C)cc1C1(c2cc(C(C)C)c(O)cc2C)OC(=O)c2ccccc21	T
Nc1c(S(=O)(=O)O)cc(Nc2cccc(S(N)(=O)=O)c2)c2c1C(=O)c1ccccc1C2=O	T
COC(=O)CC[C@@H](C)[C@H]1CC[C@H]2[C@H]3CC[C@H]4C[C@@H]5CC[C@@]4(C)C3(O5)[C@@H](Br)[C@@H](Br)[C@@]12C	T
N#C/C(=C\Nc1ccccn1)C(=O)c1ccco1	T
